biological target: T1, HLA-B*44:05 (human); assay: UV peptide exchange, anti-b2m ELISA
T1 construct: also called peptide-receptive MHC class I molecule
The following binders are listed with their measured peptide exchange yield values.

Examples with answers:
MEVDPIGHVY : 50 to 75%
AELVGPVIPQDW : 50 to 75%
SEFDLEQVW : > 75%
REKDLPNYNW : > 75%
QEIDQKRLEF : 20 to 50%
AEPPILYSEY : 20 to 50%
EVEVGDRTDW : 20 to 50%

GETQQHIQL yielded peptide exchange yield of 50 to 75%

These measurements were taken from patent US20200087363A1.
